Each entry below carries its reported drug sensitivity score.
- System: DLD1 NRF2-WT
- protocol text: drug sensitivity score (DSS) cytotoxicity (DSS score); higher = more toxic; extreme values may be limits of the assay
- conditions used: 72 h; CellTox Green cytotoxicity
Form field (numeric): enter value without unit.

Recorded results for 3 compounds are shown here.
[[record]]
compound = "CC[C@@H]1C(=O)N(C)c2cnc(Nc3ccc(C(=O)N[C@H]4CC[C@H](N5CCN(CC6CC6)CC5)CC4)cc3OC)nc2N1C(C)C"
experimental_value = 7

[[record]]
compound = "Cc1ccc(F)c(NC(=O)Nc2ccc(-c3cccc4[nH]nc(N)c34)cc2)c1"
experimental_value = 0

[[record]]
compound = "Oc1ccc2c(c1)CC[C@H](c1ccccc1)[C@@H]2c1ccc(OCCN2CCCC2)cc1"
experimental_value = 0


Data request: Give the measured drug sensitivity score of CC(C)C[C@@H](C(=O)N[C@H](C(=O)OC1CCCC1)c1ccccc1)[C@H](O)C(=O)NO .
Data returned: 4.9

Data request: Give the measured drug sensitivity score of CCC(C)n1ncn(-c2ccc(N3CCN(c4ccc(OCC5COC(Cn6cncn6)(c6ccc(Cl)cc6Cl)O5)cc4)CC3)cc2)c1=O (stereo unspecified) .
Data returned: 0

Data request: Give the measured drug sensitivity score of CN1CCN(CCOc2cc(OC3CCOCC3)c3c(Nc4c(Cl)ccc5c4OCO5)ncnc3c2)CC1 .
Data returned: 0.7

Data request: Give the measured drug sensitivity score of C=CC(=O)N1CCC(Oc2cc3c(Nc4ccc(Cl)c(Cl)c4F)ncnc3cc2OC)CC1 .
Data returned: 0

Data request: Give the measured drug sensitivity score of CC(C)Cn1cnc2c(N)nc3ccccc3c21 .
Data returned: 0

Data request: Give the measured drug sensitivity score of CC(O)c1cc(C(=O)N[C@@H](C)Cn2ccc(-c3ccc(C#N)c(Cl)c3)n2)n[nH]1 (stereo partly specified) .
Data returned: 0

Data request: Give the measured drug sensitivity score of CCNCCS(=O)(=O)NC[C@@]1(c2ccccc2)SC(NC(=O)C(C)(C)C)=NN1C(=O)C(C)(C)C .
Data returned: 0

----------
Each entry below carries its reported drug sensitivity score.
- System: DLD1 NRF2-WT
- protocol text: drug sensitivity score (DSS) viability (DSS score); higher = more sensitive; extreme values may be limits of the assay
- conditions used: 72 h; CellTiter-Glo viability
Form field (numeric): enter value without unit.

[[record]]
molecule = "COc1cc2ncnc(Oc3cccc(NC(=O)Nc4cc(C(C)(C)C(F)(F)F)on4)c3)c2cc1OC"
experimental_value = 1.4

[[record]]
molecule = "CC1(C)CNc2cc(NC(=O)c3cccnc3NCc3ccncc3)ccc21 [Motesanib]"
experimental_value = 4.5

[[record]]
molecule = "COC(=O)c1ccc2c(c1)NC(=O)/C2=C(\\Nc1ccc(N(C)C(=O)CN2CCN(C)CC2)cc1)c1ccccc1 [Nintedanib]"
experimental_value = 0.5

[[record]]
molecule = "COc1ccc(S(=O)(=O)Nc2cccnc2Nc2ccc(O)cc2)cc1 [ABT-751]"
experimental_value = 15.3

[[record]]
molecule = "COCCOc1cnc2ccn([C@H](C)c3nnc4c(F)cc(-c5cnn(C)c5)cn34)c(=O)c2c1 [AMG-337]"
experimental_value = 4.2


Data request: Give the measured drug sensitivity score of O=c1[nH]cc(F)c(=O)[nH]1 [Fluorouracil] .
Data returned: 10.3

Data request: Give the measured drug sensitivity score of Nc1nc(Cl)nc2c1ncn2[C@@H]1O[C@H](CO)[C@@H](O)[C@@H]1F [Clofarabine] .
Data returned: 11.8

Data request: Give the measured drug sensitivity score of CCc1cnn2c(NCc3ccc[n+]([O-])c3)cc(N3CCCC[C@H]3CCO)nc12 [Dinaciclib] .
Data returned: 27.5

Data request: Give the measured drug sensitivity score of COc1ccc(CCc2nc3cc(-c4c(C)noc4C)ccc3n2C[C@H](C)N2CCOCC2)cc1Cl [SGC-CBP30] .
Data returned: 2.2

Data request: Give the measured drug sensitivity score of O=C(Nc1cc(Oc2cc(F)c(NC(=O)C3(C(=O)Nc4ccc(F)cc4)CC3)cc2F)ccn1)C1CC1 [Altiratinib] .
Data returned: 5.1

Data request: Give the measured drug sensitivity score of O=C(/C=C\n1cnc(-c2cc(C(F)(F)F)cc(C(F)(F)F)c2)n1)NNc1cnccn1 [Selinexor] .
Data returned: 16.7

Data request: Give the measured drug sensitivity score of CN(c1ncccc1CNc1nc(Nc2ccc3c(c2)CC(=O)N3)ncc1C(F)(F)F)S(C)(=O)=O .
Data returned: 6.7

Data request: Give the measured drug sensitivity score of Cn1ncc(Cl)c1-c1cc(C(=O)N[C@H](CN)Cc2ccc(F)c(F)c2)oc1Cl [Uprosertib] .
Data returned: 3.4

Data request: Give the measured drug sensitivity score of CNC(=O)c1cccc(-c2ccc3c(N4CCOC[C@@H]4C)nc(N4CCOC[C@@H]4C)nc3n2)c1 [Vistusertib] .
Data returned: 11.9

----------
- Tested on: DLD1 NRF2-WT
- protocol text: drug sensitivity score (DSS) cytotoxicity (DSS score); higher = more toxic; extreme values may be limits of the assay
- conditions used: 72 h; CellTox Green cytotoxicity
Each entry below carries its reported drug sensitivity score.
Form field (numeric): enter value without unit.

Recorded results for 10 compounds are shown here.
[[record]]
compound = "Cn1cnc2c(F)c(Nc3ccc(Br)cc3Cl)c(C(=O)NOCCO)cc21"
assay_readout = "drug sensitivity score"
experimental_value = 0

[[record]]
compound = "Cn1cc(C[C@@H](N)C(=O)O)c2ccccc21"
assay_readout = "drug sensitivity score"
experimental_value = 0

[[record]]
compound = "CN(Cc1cnc2nc(N)nc(N)c2n1)c1ccc(C(=O)N[C@@H](CCC(=O)O)C(=O)O)cc1 [Methotrexate]"
assay_readout = "drug sensitivity score"
experimental_value = 0

[[record]]
compound = "COc1cccc2c1C(=O)c1c(O)c3c(c(O)c1C2=O)C[C@@](O)(C(=O)CO)C[C@@H]3O[C@H]1C[C@H](N)[C@H](O)[C@H](C)O1"
assay_readout = "drug sensitivity score"
experimental_value = 0

[[record]]
compound = "C[C@]12CC[C@@H]3c4ccc(O)cc4C[C@@H](CCCCCCCCC[S+]([O-])CCCC(F)(F)C(F)(F)F)[C@H]3[C@@H]1CC[C@@H]2O (stereo partly specified)"
assay_readout = "drug sensitivity score"
experimental_value = 0

[[record]]
compound = "COc1cc2c(NC3CCN(C(C)C)CC3)nc(N3CCC(F)(F)CC3)nc2cc1OCCCN1CCCC1"
assay_readout = "drug sensitivity score"
experimental_value = 0

[[record]]
compound = "O=C(NCc1ccncc1)C12CC3CC(C1)CC(c1ccc(Cl)cc1)(C3)C2"
assay_readout = "drug sensitivity score"
experimental_value = 0

[[record]]
compound = "C[C@@H](Oc1ccc2[nH]nc(/C=C/c3cnn(CCO)c3)c2c1)c1c(Cl)cncc1Cl"
assay_readout = "drug sensitivity score"
experimental_value = 0

[[record]]
compound = "Cn1c(=O)n(-c2ccc(C(C)(C)C#N)cc2)c2c3cc(-c4cnc5ccccc5c4)ccc3ncc21"
assay_readout = "drug sensitivity score"
experimental_value = 0

[[record]]
compound = "C=CCN(/C=C1/C(=O)O[C@H](COC)[C@@]2(C)C1=C(O)C(=O)C1=C2[C@H](OC(C)=O)C[C@]2(C)C(=O)CC[C@@H]12)CC=C"
assay_readout = "drug sensitivity score"
experimental_value = 0


Data request: Give the measured drug sensitivity score of CC(C)c1cc(-c2n[nH]c(=O)n2-c2ccc3c(ccn3C)c2)c(O)cc1O .
Data returned: 0

Data request: Give the measured drug sensitivity score of CC1(C)CNc2cc(NC(=O)c3cccnc3NCc3ccncc3)ccc21 .
Data returned: 0

Data request: Give the measured drug sensitivity score of O=C(Nc1cnn2ccc(N3CCC[C@@H]3c3cc(F)ccc3F)nc12)N1CC[C@H](O)C1 .
Data returned: 0

Data request: Give the measured drug sensitivity score of CC(=O)OC[C@H]1O[C@@H]([S-])[C@H](OC(C)=O)[C@@H](OC(C)=O)[C@@H]1OC(C)=O.CCP(CC)CC.[Au+] .
Data returned: 2.3

Data request: Give the measured drug sensitivity score of COc1cc(OC)c(/C=C/S(=O)(=O)Cc2ccc(OC)c(NCC(=O)O)c2)c(OC)c1 .
Data returned: 5.9

Data request: Give the measured drug sensitivity score of COCCOc1cnc2ccn([C@H](C)c3nnc4c(F)cc(-c5cnn(C)c5)cn34)c(=O)c2c1 .
Data returned: 0

Data request: Give the measured drug sensitivity score of Cc1cc(-c2ncc(CC(=O)Nc3ccc(-c4cnccn4)cn3)cc2C)ccn1 .
Data returned: 0

Data request: Give the measured drug sensitivity score of CN1CCN(C2CCC(n3cc(-c4ccc(Oc5ccccc5)cc4)c4c(N)ncnc43)CC2)CC1 (stereo unspecified) .
Data returned: 4.5

Data request: Give the measured drug sensitivity score of CNC(=O)c1cccc(-c2ccc3c(N4CCOC[C@@H]4C)nc(N4CCOC[C@@H]4C)nc3n2)c1 .
Data returned: 0

----------
- System: DLD1 NRF2-WT
- protocol text: drug sensitivity score (DSS) cytotoxicity (DSS score); higher = more toxic; extreme values may be limits of the assay
- conditions used: 72 h; CellTox Green cytotoxicity
Each entry below carries its reported drug sensitivity score.

[[record]]
smiles_repr = "Oc1nc(-c2ccc(C(F)(F)F)cc2)nc2c1CSCC2"
assay_readout = "drug sensitivity score"
experimental_value = 0

[[record]]
smiles_repr = "CC1=C(/C=C/C(C)=C/C=C/C(C)=C/C(=O)O)C(C)(C)CCC1"
assay_readout = "drug sensitivity score"
experimental_value = 0


Data request: Give the measured drug sensitivity score of CCN(CC)Cc1ccc2cc(COC(=O)Nc3ccc(C(=O)NO)cc3)ccc2c1 .
Data returned: 1.6
